molecular target: CDK12/Cyclin K (Homo sapiens, UniProt Q9NYV4); experiment: NanoBRET live-cell target engagement, CDK12-NanoLuc/Cyclin K in HEK-293; format: binding; conditions: 10µM; independent experiment 2
Sequence (Q9NYV4 1-1481 isoform Q9NYV4-2): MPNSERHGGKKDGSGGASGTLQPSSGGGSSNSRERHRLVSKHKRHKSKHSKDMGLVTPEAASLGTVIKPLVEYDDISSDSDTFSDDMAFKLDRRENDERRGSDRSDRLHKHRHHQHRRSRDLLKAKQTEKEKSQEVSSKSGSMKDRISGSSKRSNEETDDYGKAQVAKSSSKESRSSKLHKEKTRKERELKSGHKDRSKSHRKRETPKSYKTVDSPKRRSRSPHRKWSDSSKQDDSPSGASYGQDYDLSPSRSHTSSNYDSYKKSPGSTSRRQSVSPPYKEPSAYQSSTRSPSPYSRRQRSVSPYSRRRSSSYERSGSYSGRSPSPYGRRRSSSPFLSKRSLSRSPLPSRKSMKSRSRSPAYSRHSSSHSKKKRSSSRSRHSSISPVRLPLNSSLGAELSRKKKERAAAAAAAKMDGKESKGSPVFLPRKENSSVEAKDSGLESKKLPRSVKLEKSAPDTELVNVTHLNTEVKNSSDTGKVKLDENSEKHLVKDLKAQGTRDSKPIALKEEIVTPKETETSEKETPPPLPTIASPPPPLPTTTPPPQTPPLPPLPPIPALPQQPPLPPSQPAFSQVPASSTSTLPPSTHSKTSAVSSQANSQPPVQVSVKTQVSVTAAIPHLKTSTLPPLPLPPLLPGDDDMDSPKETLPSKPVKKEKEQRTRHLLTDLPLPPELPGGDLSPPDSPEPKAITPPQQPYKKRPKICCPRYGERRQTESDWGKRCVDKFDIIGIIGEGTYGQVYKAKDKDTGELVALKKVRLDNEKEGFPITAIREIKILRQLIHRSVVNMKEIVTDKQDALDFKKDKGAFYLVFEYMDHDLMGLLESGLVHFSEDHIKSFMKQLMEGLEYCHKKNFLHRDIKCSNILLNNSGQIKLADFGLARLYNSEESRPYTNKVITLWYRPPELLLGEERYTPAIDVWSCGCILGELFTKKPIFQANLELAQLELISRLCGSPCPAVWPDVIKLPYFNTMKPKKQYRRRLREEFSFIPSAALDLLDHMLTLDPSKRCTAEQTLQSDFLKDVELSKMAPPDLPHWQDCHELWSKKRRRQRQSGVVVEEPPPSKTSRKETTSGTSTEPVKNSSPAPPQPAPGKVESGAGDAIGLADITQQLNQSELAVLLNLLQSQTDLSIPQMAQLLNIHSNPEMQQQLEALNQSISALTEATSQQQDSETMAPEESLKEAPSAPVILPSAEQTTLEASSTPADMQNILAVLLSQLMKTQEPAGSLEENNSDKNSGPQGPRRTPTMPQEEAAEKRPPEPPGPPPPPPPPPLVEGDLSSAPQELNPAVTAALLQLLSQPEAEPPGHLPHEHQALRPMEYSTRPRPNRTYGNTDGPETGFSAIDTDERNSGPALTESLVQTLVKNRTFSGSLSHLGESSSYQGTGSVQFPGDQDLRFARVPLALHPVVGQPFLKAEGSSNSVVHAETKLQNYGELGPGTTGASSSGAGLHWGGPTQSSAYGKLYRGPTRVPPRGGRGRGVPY
Sequence (O75909 whole entry partner): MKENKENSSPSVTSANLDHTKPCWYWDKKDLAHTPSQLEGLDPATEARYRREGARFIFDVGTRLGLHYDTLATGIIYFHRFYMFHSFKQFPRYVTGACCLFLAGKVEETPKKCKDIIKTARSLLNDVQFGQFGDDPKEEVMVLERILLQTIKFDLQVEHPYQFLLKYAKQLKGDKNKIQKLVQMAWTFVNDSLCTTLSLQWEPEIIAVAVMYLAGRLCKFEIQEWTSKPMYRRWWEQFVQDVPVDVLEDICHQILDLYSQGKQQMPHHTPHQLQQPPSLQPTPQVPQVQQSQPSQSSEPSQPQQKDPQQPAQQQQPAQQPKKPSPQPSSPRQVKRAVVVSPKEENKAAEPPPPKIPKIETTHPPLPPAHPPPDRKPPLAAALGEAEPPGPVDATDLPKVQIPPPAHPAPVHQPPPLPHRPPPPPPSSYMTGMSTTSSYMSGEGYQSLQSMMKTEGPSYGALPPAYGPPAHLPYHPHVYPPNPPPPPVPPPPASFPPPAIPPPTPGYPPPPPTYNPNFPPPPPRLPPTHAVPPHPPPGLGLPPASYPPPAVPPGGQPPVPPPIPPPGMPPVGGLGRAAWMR
Would you mind telling me the reported CDK12/K Inhibition at 10µM (%) of each entry?
Record the value in %, omitting the unit from your answer.

Value lookup for CDK12/K Inhibition at 10µM (%); key = Cc1c(Br)c(Br)c2c3c1nc(N1CCNCC1)n3CCC2.Cl [SEL 120-34A]
48.0

Requested read-out: CDK12/K Inhibition at 10µM (%). Entry: O=C1NC(=NCc2cccs2)S/C1=C\c1ccc2ncccc2c1 [RO-3306]
13.0

// returns reported CDK12/K Inhibition at 10µM (%) for input CN(C)C/C=C/C(=O)Nc1ccc(C(=O)Nc2cccc(Nc3ncc(Cl)c(-c4c[nH]c5ccccc45)n3)c2)cc1 [THZ1]
64.6

Param item = O=C1NCCc2[nH]c(-c3ccncc3)cc21 [PHA-767491] ; retrieve measured CDK12/K Inhibition at 10µM (%).
16.8

----------
Kindly supply the reported inhibition at 10 µM values for the records listed here.
target: CDK5/CDK5R1 (Homo sapiens); assay: NanoBRET live-cell target engagement, CDK5-NanoLuc/CDK5R1 in HEK-293; assay type: binding; conditions: CDK5/CDK5R1; experiment 1; read-out: Inhibition at 10µM (%)
Sequence (Q00535 whole entry): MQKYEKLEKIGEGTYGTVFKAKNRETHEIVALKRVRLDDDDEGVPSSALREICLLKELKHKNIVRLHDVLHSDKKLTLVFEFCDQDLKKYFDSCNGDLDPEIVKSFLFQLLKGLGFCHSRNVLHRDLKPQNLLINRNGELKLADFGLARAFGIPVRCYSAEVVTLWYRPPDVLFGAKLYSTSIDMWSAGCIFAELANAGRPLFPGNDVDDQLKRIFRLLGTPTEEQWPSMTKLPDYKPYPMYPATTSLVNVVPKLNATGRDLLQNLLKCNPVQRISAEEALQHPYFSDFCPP
Sequence (Q15078 whole entry partner): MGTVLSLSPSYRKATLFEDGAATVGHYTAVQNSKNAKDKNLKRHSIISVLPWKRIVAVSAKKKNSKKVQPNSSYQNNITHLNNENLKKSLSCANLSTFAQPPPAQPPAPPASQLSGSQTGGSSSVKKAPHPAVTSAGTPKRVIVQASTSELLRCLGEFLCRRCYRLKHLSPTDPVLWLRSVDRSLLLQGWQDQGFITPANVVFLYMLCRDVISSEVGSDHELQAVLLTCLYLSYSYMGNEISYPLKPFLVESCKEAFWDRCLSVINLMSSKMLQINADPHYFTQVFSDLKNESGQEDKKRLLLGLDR
Reply with the number, then its unit.

I have this molecule here, Cn1cc(-c2ccc(-c3cncc(Cl)c3N3CCC4(CCNC4=O)CC3)cc2)cn1 [CCT251545] , and I need its recorded inhibition at 10 µM.
23.2%

Give the measured inhibition at 10 µM of CN1CCN(Cc2ccc(NC(=O)Nc3ccc(Oc4ccnc(N)n4)cc3)cc2C(F)(F)F)CC1 [K03861] .
27.8%

Using the record for CNC(=O)c1nn(C)c2c1C(C)(C)Cc1cnc(Nc3ccc(N4CCN(C)CC4)cc3)nc1-2 [Milciclib] , report its inhibition at 10 µM.
77.8%

I'd like to know its inhibition at 10 µM. The molecule in question is COC1CN(C(=O)c2ccc3c(N)ncc(-c4ccc(-c5cnn(C)c5)cc4)c3n2)C1 [CCT251545 analog]
17.8%

What does the record list as inhibition at 10 µM for CN1CCN(c2ccc(Nc3ncc4cc(C#N)c(=O)n(C5CCCC5)c4n3)cc2)CC1 [ON123300] ?
8%

Name the reported inhibition at 10 µM value associated with the molecule CC(C)N1CCN(c2ccc(Nc3ncc4cc5n(c4n3)C3(CCCCC3)CNC5=O)nc2)CC1 [Lerociclib]
5.5%

I'd like to know its inhibition at 10 µM. The molecule in question is CN1CC[C@H](c2c(O)cc(O)c3c(=O)cc(-c4ccccc4Cl)oc23)[C@H](O)C1 [Flavopiridol]
85%

// lookup inhibition at 10 µM for COc1ccccc1-c1cc(Nc2cccc(CS(N)(=O)=O)c2)ncn1 [LDC000067]
17.5%

What value of inhibition at 10 µM has been reported for the following molecule? CC(C)c1cnn2c(NCc3ccccc3)cc(NC[C@H]3CCNC[C@@H]3O)nc12 [CT7001]
78.3%

Look at this molecule and give its reported inhibition at 10 µM. COc1ccc(F)cc1-c1cc(NC(=O)C2CCCNC2)ncc1Cl (stereo not drawn) [CDK inhibitor 2]
37.7%

// returns reported inhibition at 10 µM for input N#CCNC(=O)c1ccc(-c2ccnc(Nc3ccc(N4CCOCC4)cc3)n2)cc1 [Momelotinib]
7.6%

Request the reported inhibition at 10 µM associated with CC(C)(C)c1nc(-c2cccc(NS(=O)(=O)c3c(F)cccc3F)c2F)c(-c2ccnc(N)n2)s1 [Dabrafenib]
-4.1%
